The entries below are paired with their reported apparent KD of MS2 coat protein.
Test system: MS2 coat protein
experimentalDetails: apparent KD of MS2 coat protein; designed switch direction (-1 OFF switch, 1 ON switch): -1; higher = weaker reporter binding
statedConditions: Eterna round: R95; input ligand: microRNA oligo, concentration not stated
Answer format: numeric, nM implied, no suffix.

Below, 2 sequences whose answers are already recorded.
GGGAUGUCAGGAUAUCCAAAAGUCUGCCAAUACAGCAGACAGGAGAAGGGACAUGAGGAUCACCCAUGUAAAGA [Atonis] (puzzle: Exclusion 4)
33.5
AAAAGGCUAGGAUAUACAUGAGGAUCACCCAUGUGUACUGGACAUGCGGUAUGCGUAUGUAGAAGGAGUAUAAA [Inaisor] (puzzle: Exclusion 3)
14.2

Q: Would you kindly share the measured apparent KD of MS2 coat protein for AAAGAACAUGAGGAUCACCCAUGUGAGGAUAUGUGAGAAUUGUGGAGAAGAAGAGAGAACAGAAGGCACUGAGG [JR_Exclu1_Sub067] (puzzle: Exclusion 1) ?
Ans: 51.3

Q: Would you kindly share the measured apparent KD of MS2 coat protein for CAGUACUGAGGAUAUACAUGAGGAUCACCCAUGUGCUCUAGCUAGGAUACUAGCAUUAGUAGAAGGCAGUACUG [Fiskers Ex 3 828 mod 8] (puzzle: Exclusion 3) ?
Ans: 15.2

Q: Would you kindly share the measured apparent KD of MS2 coat protein for UAGUGGCAAGGAUAUACAGUGGAGAGGAUUGCAAGAGGUGGACAUGAGGAUCACCCAUGUAGAAGGUGCAGAGA [JR_Exclu2_Sub023] (puzzle: Exclusion 2) ?
Ans: 203

Q: Would you kindly share the measured apparent KD of MS2 coat protein for CCUCAGUAAGGAUAUCAGCUUAUGGAGGUGGUAAUGAGAGCUGAGAAGGUACAUGAGGAUCACCCAUGUUAGUU [JL Zatite mod 1] (puzzle: Exclusion 4) ?
Ans: 46.2
